Cited source: ChEMBL document CHEMBL1125314

- assay-name: The compound was tested for hydrolysis rate at pH 8.2
- Type: ADME
- assay-setup: buffer
Rule: measured k obs below 0.007 min⁻¹ gets T; anything equal to or greater than 0.007 min⁻¹ gets F.

Query: Would you kindly verify if k obs of CCc1nc(O)c(NCN2C(=O)c3ccccc3C2=O)cc1C is strictly less than 0.007 min⁻¹?
Reply: F

Query: Would you kindly verify if k obs of CCc1cc(NCN2C(=O)c3ccccc3C2=O)c(O)nc1C is strictly less than 0.007 min⁻¹?
Reply: F

Query: Would you kindly verify if k obs of Cc1ccc(NCN2C(=O)c3ccccc3C2=O)c(=O)[nH]1 is strictly less than 0.007 min⁻¹?
Reply: F

Query: Would you kindly verify if k obs of O=C1c2ccccc2C(=O)N1CNc1cccnc1O is strictly less than 0.007 min⁻¹?
Reply: T

Query: Would you kindly verify if k obs of O=C1c2ccccc2C(=O)N1CNc1cc2c(nc1O)CCCC2 is strictly less than 0.007 min⁻¹?
Reply: F
